The reported measurements were obtained from ChEMBL document CHEMBL1153679.

System: Trichophyton benhamiae
ASSAY_EXPLANATION: Antimicrobial activity against Trichophyton mentagrophytes fungus at a dose of 120 ug
Type: functional
MEASUREMENT_LABEL: Excess zone radius (mm)

INSERT INTO assay_data (record_smiles, meas_value) VALUES
  ('O=C1c2ccccc2-c2nccc3c2c1nc1ccccc13', 10),
  ('Cc1c2c(nc3ccccc13)C(=O)c1cccnc1C2=O', 0),
  ('O=C1c2cccnc2-c2nccc3c2c1nc1ccccc13', 0),
  ('Cc1c2c(nc3ccccc13)C(=O)c1ccccc1C2=O', 0);

* * *

Test system: CHO
ASSAY_EXPLANATION: In vitro cytotoxic activity against DNA-double strand break repair deficient Chinese Hamster Ovary (CHO) cell-line EM9
Format: functional, cell-based
CONDITION: Cricetulus griseus
pIC50: −log10 of the molar value.
MEASUREMENT_LABEL: pIC50

INSERT INTO results (compound, meas_value) VALUES
  ('O=C1c2ccccc2-c2nccc3c2c1nc1ccccc13 [BENZOSAMPANGINE]', 4.74);

* * *

System: Bacillus subtilis
ASSAY_EXPLANATION: Antimicrobial activity against gram positive Bacillus subtilis at a dose of 120 ug
Type: functional
Consider the following molecules and their measured Excess zone radius readings.
MEASUREMENT_LABEL: Excess zone radius (mm)

INSERT INTO assay_data (record_smiles, target, measurement_label, unit_tag, meas_value) VALUES
  ('Cc1c2c(nc3ccccc13)C(=O)c1ccccc1C2=O', 'Bacillus subtilis', 'Excess zone radius', 'mm', 3),
  ('O=C1c2cccnc2-c2nccc3c2c1nc1ccccc13', 'Bacillus subtilis', 'Excess zone radius', 'mm', 14),
  ('Cc1c2c(nc3ccccc13)C(=O)c1cccnc1C2=O', 'Bacillus subtilis', 'Excess zone radius', 'mm', 10),
  ('O=C1c2ccccc2-c2nccc3c2c1nc1ccccc13', 'Bacillus subtilis', 'Excess zone radius', 'mm', 8);
